Biological target: T1, human KDR1 to 3 domain (human, UniProt P35968 20-327, limits assumed)
T1 construct: domain: KDR1 to 3 domain; The panning antigen was KDR1 to 3 domain-Fc; Treated as one molecule; also called KDR1 to 3 domains; KDR D1 to D3
T1 sequence (P35968 20-327 limits assumed): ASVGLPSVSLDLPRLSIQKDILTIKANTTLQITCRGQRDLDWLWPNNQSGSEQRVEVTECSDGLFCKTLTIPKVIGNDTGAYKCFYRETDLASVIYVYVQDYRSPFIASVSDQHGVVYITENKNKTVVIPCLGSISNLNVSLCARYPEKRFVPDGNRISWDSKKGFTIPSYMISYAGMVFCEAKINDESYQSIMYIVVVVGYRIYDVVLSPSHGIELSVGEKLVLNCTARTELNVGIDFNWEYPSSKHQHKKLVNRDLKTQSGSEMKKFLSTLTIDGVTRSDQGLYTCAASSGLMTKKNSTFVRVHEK
Experiment: BLI (Octet), KDR1 to 3 domains on biosensor, scFv added, off-rate screening
readout.kind: koff (s⁻¹)
Please reply with the bare figure in s⁻¹ and do not write the unit itself.

Entry under test: LH-E7 (scFv) (scFv, V domains shown) VH: EVQLVESGGGLVQPGGSLRLSCAASGYTFSSYWMSWVRQAPGKGLEWVSEINPGNGHTNYNEKFKSRFTISRDKSKNTLYLQMNSLRAEDTAVYYCARHWGPSLTSPFDYWGQGTLVTVSS VL: DIQMTQSPSSLSASVGDRVTITCRADNLGDVNVHWYQQKPGKAPKLLIYYDADRPSGVPSRFSGSNSGNDATLTISSLQPEDFATYYCQAPTRIAPYTFGQGTKVEIKR . Its koff was 0.000111

Cited source for all entries: patent US20240383989A1
